Molecular target: UniProt Q9Y5N1
Sequence (Q9Y5N1 whole entry): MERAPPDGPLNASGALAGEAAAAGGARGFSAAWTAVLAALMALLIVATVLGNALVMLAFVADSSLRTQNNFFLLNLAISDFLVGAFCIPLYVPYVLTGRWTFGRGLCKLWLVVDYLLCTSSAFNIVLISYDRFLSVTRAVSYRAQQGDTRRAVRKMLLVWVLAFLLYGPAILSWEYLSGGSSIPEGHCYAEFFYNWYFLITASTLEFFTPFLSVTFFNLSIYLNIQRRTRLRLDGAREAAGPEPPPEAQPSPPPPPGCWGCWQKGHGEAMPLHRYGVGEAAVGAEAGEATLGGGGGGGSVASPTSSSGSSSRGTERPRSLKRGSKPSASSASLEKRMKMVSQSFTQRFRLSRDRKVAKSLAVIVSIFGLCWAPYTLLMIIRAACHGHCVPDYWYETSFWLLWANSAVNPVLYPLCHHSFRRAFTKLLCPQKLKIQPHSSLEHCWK
RECORDED METRIC: pKi
// pKi is dimensionless: -log10 of concentration (M)

Q. Test system UniProt Q9Y5N1; read-out pKi; what value for O=C(CC(=O)NCCc1cnc[nH]1)NCCc1cnc[nH]1 ?
A. 5.57
